# PROTOCOL SUMMARY: in vivo
# EXPERIMENTAL CONTEXT: male, Wistar, rat, po, 50 mg/kg, t1/2 (kβ), half-time of elimination phase

SMILES STR: CC(C)=CCOc1ccc(/C(C(=O)O)=C(\CC(C)C)C(=O)O)cc1
half-life: 12.6 h

* * *

# PROTOCOL SUMMARY: in vivo
# EXPERIMENTAL CONTEXT: male, Wistar, rat, po, 50 mg/kg, t1/2 (kα), half-time of absorption phase

SMILES STR: CC(C)=CCOc1ccc(/C(C(=O)O)=C(\CC(C)C)C(=O)O)cc1
UNIT DESCRIPTOR: min
half-life: 57
